Assay: Plasma stability: incubation in human plasma, UPLC-MS quantification
Assay type: in vitro ADME
Details: human, human plasma from healthy volunteers; second experiment, 6 h; read-out: peptide degraded after incubation in plasma
Procedure: Panel B. Time course decay of β32_33, PMT, PMT-8a and PMT-8b incubated up to 72 h with human plasma from four healthy subjects. […] The Y axis indicates the signal intensity of the four peptides. […] Samples were dried under vacuum, resuspended in 100 μL of 0.1% formic acid containing 5% acetonitrile, and analyzed with a Water Acquity H-Class UPLC system equipped with a single-quadruple mass detector with electrospray ionization source. […]
readout_label: metabolised at 6 h, 0.2 mM (%)
Kindly answer with a numeric value in %, unit omitted.

Dear colleague, I am looking for the recorded metabolised at 6 h, 0.2 mM of the following molecule: CC[C@H](C)[C@H](NC(=O)[C@H](CC(C)C)NC(=O)[C@H](C)NC(=O)[C@@H](NC(=O)[C@H](CCCNC(=N)N)NC(=O)[C@@H]1CCCN1C(=O)[C@H](CO)NC(=O)[C@H](CC(C)C)NC(=O)[C@H](Cc1ccccc1)NC(=O)[C@H](CO)NC(=O)[C@H](CCCCN)NC(=O)[C@@H](N)CCCCN)[C@@H](C)O)C(=O)N[C@@H](CC(N)=O)C(=O)N[C@@H](Cc1ccccc1)C(=O)N[C@@H](CC(C)C)C(=O)N[C@H](C(=O)O)C(C)C [β32_33, KKSFLSPRTALINFLV, reference compound]
90

* * *

Test: Plasma stability: incubation in human plasma, UPLC-MS quantification
Type: in vitro ADME
Settings: human, human plasma from healthy volunteers; second experiment, plasma of four healthy volunteers, 1.5 h (FIG. 4B); read-out: starting amount present after incubation in plasma
readout_label: remaining at 1.5 h, 0.2 mM

What does the record list as remaining at 1.5 h, 0.2 mM for CC[C@H](C)[C@H](NC(=O)[C@H](CC(C)C)NC(=O)[C@H](C)NC(=O)[C@@H](NC(=O)[C@H](CCCNC(=N)N)NC(=O)[C@@H]1CCCN1C(=O)[C@H](CO)NC(=O)[C@H](CC(C)C)NC(=O)[C@H](Cc1ccccc1)NC(=O)[C@H](CO)NC(=O)[C@H](CCCCN)NC(=O)[C@@H](N)CCCCN)[C@@H](C)O)C(=O)N[C@@H](CC(N)=O)C(=O)N[C@@H](Cc1ccccc1)C(=O)N[C@@H](CC(C)C)C(=O)N[C@H](C(=O)O)C(C)C [β32_33, KKSFLSPRTALINFLV, reference compound] ?
> 85%

* * *

Experiment: Plasma stability: incubation in human plasma, UPLC-MS quantification
Type: in vitro ADME
Details: human, human plasma from healthy volunteers; second experiment, plasma of four healthy volunteers, 72 h; read-out: peptide present after incubation in plasma
Non-standard residues stand in square brackets, D forms with d. Residues, ends and D or L forms follow the SMILES beside them.
readout_label: remaining at 72 h, 0.2 mM (%)
Just the number please, in %, no unit attached.

Can you share its remaining at 72 h, 0.2 mM? I mean this molecule: CC[C@@H](C)[C@@H](NC(=O)[C@@H](CC(C)C)NC(=O)[C@@H](C)NC(=O)[C@H](NC(=O)[C@@H](CCCNC(=N)N)NC(=O)[C@H]1CCCN1C(=O)[C@@H](CO)NC(=O)[C@H](N)CC(C)C)[C@H](C)O)C(=O)O [PMT-8b, d(L)d(S)d(P)d(R)d(T)d(A)d(L)d(I)] (H-[dL][dS][dP][dR][dT][dA][dL][dI]-OH; N-terminus and C-terminus assumed)
80
